B1: Pituitary-specific positive transcription factor 1, residues 130 to 198; numbered along this chain, P28069 (parent)
chain: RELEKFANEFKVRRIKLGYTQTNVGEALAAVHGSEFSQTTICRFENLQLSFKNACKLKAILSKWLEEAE

- Variants of: B1
- experimentalProtocol: abundance fitness (aPCA) (normalised: wild type 0, dead -1); higher = more abundant; growth selection in yeast, the domain comes from the species named
- settings: Homo sapiens
Outcome: 1 for abundance fitness of at least -0.4; 0 for anything lower.

mutation: L17Y
class: 0

mutation: E26F
class: 0

mutation: S34D
class: 1

mutation: E45A
class: 0

mutation: L17C
class: 0

mutation: A68V
class: 1

mutation: E2L
class: 0

mutation: G33D
class: 0

mutation: L65E
class: 0

mutation: V12M
class: 1

mutation: L49F
class: 1

mutation: E69C
class: 0

mutation: S34M
class: 1

mutation: F10T
class: 0

mutation: A27I
class: 1

mutation: L65M
class: 1

mutation: K58N
class: 0

mutation: C55W
class: 1

mutation: C42H
class: 1

mutation: G25P
class: 0

mutation: Q48A
class: 0

mutation: L17K
class: 0
